# T/C annotations
- Test system: MX-1 breast xenograft, intrarenal, nude mice, tumor weight
- protocol-summary: NCI In Vivo Anticancer Drug Screen. Data for tumor model Human Mammary Carcinoma MX-1 Xenograft (intrarenal inoculation) in NU/NU BALB/C (nude) mice
- experimental-conditions: endpoint: mean tumor weight change; dose: 25.0 mg/kg/injection; schedule: Q04DX003 (ip); vehicle: suspension in saline; higher = larger tumour
Records with an inconclusive call do not appear.

Look over these answered cases.
COc1cccc2c1C(CO)N1C(C#N)C3CC(C(=O)O)C(C1C2)N3C (centres undefined)
-48 % of control
CC1OC(O[C@H]2/C=C/C=C/C=C/C=C/C=C/C=C/C=C/[C@H](C)[C@@H](O)[C@@H](C)[C@H](C)OC(=O)C[C@H](O)C[C@H](O)CC[C@@H](O)[C@H](O)C[C@H](O)C[C@]3(O)C[C@H](O)[C@@H](C(=O)O)[C@H](C2)O3)C(O)C(N)C1O (some centres undefined)
57 % of control
O=c1c(O)c(O)c1=O.[NH2-].[NH2-].[NH2-].[NH2-].[NH2-].[Ru+5]
74 % of control

In: Value lookup for T/C; key = "Oc1ccc(/C=N/Nc2nnc(N/N=C/c3ccc(O)cc3O)c3ccccc23)c(O)c1"
Out: 50 % of control
